Data origin: the array DNA melting data of Ke et al. (doi:10.1101/2024.01.08.574731)

I'd appreciate it if you could supply Tm values for the items below.
- Assay: melting temperature; fluorescence melt of hairpins on a sequencing array, two-state fit, raised by 9.35 °C to match UV melts
- Experimental Parameters: sodium 0.088 M
Give bare numbers, in °C.

>  <Seq>
GCAGAGCGAAAGCACCGC ((.(.((....)).).))

>  <Tm [°C]>
45.4

$$$$
>  <Seq>
GGGTAACGAAAGTTGCCC (((.(((....))).)))

>  <Tm [°C]>
59.6

$$$$
>  <Seq>
GATCAAGAGTTTGATC ((((((....))))))

>  <Tm [°C]>
41.4

$$$$

Now consider a different sequence.
For this sequence ( GGCTGCGGAAACGTAGCC ((((.((....)).)))) ), measured Tm is 61

----------
- Assay: folding enthalpy; higher = less favourable; fluorescence melt of hairpins on a sequencing array, two-state fit
- Experimental Parameters: sodium 0.088 M
Consider the following sequences; for each one, report its folding enthalpy.
One number for each entry, in kcal/mol.

Worked cases, answers included:
>  <Seq>
GTGCAAGGAAACTTGTGC (..((((....))))..)

>  <Measurement>
-22.4

$$$$
>  <Seq>
GCGGACGAAAGTCACCGC ((((((....)))..)))

>  <Measurement>
-29.5

$$$$
>  <Seq>
GATCAATACTTGATC ((((((...))))))

>  <Measurement>
-30.4

$$$$

# batch: return folding enthalpy for each of the 5 sequences below
1. GATCCCACACGGGATC ((((((....))))))
2. TAGGAGAAATCCTA (((((....)))))
3. GTCGACCGAAAGGTGAC (((.(((....))))))
4. GATCTATGCTAGATC ((((((...))))))
5. GGTTTGGCGAAAGCCACC (((..(((....))))))

Result:
1: -43.7; 2: -8.63; 3: -22.4; 4: -23.4; 5: -8.59

List folding enthalpy for every entry below, keeping the order given.
1. GACGACGAAAGTCCGGTC ((((((....)))..)))
2. GACCTACGAAAGTAGTC (((.(((....))))))
3. GCGTTGCGAAAGCACTGC ((..(((....)))..))
4. GGAGGCGAAAGCCTTTCC ((((((....)))..)))
5. GTTCGCGAAAGCGTAAC ((((((....))).)))
6. GATCAACAGGTTGATC ((((((....))))))
7. GATCAAGCGCTTGATC ((((((....))))))

Result:
1. -18
2. -17.3
3. -18.2
4. -10.3
5. -13.8
6. -36.2
7. -51.6

----------
- Assay: melting temperature; fluorescence melt of hairpins on a sequencing array, two-state fit, raised by 9.35 °C to match UV melts
- Experimental Parameters: sodium 0.088 M
Endpoint Name: Tm
The reply should read as a number followed by its unit.

// below: answered sequences
>  <Seq>
GGCACAGGAAACTACGCC (((..((....))..)))

>  <Tm>
39.8 °C

$$$$
>  <Seq>
GTCATACGAAAGTAGAC (((.(((....))))))

>  <Tm>
42.4 °C

$$$$
>  <Seq>
GGTCTGGGAAACCAGGTC (..((((....))))..)

>  <Tm>
34.9 °C

$$$$

Batch of 5 sequences: report Tm for each.
1. CGAACCGGAAACGGTCG (((.(((....))))))
2. GAACGCGAAAGCGGTTC ((((((....))).)))
3. GATCCACACATGGATC ((((((....))))))
4. GGAGATCGAAAGATTTCC (((.(((....))).)))
5. GTTCGTCGAAAGACAAC (((.(((....))))))

Result:
1: 51.4 °C; 2: 57.3 °C; 3: 52.4 °C; 4: 46.5 °C; 5: 42.5 °C

# per-item lookup of Tm; items listed below
1. GATTTTGGAAACGAAATC (((((.(....).)))))
2. GAATGCGAAAGCAGTTTC ((((((....)))..)))
3. GCTGTCGAAAGACTAAGC ((((((....)))..)))
4. GAAGCAGGAAACCGCTTC (((((.(....).)))))
5. GGATACGAAAGTAAATCC ((((((....)))..)))

Result:
["39.6 °C", "31.3 °C", "46.2 °C", "47.1 °C", "35.8 °C"]
